test system: PC3 prostate cancer cells; experiment: Cell viability of prostate cancer PC3 cells after 72 hours treatment; assay type: cell-based; conditions: Homo sapiens, PC-3, 10 μM
Observed Property: viability at 10 µM

Solved cases below.
Compound	viability at 10 µM
NCCn1c(-c2ccc(N(CCO)CCO)cc2)nc2cc(C(CC(N)=O)NCc3ccc(Br)s3)ccc21 (stereo not shown) [LLS45]	118%
COc1ccc(CCn2c(-c3ccc(N(CCOC(C)=O)CCOC(C)=O)cc3)nc3cc(C(CC(N)=O)NCc4ccc5[nH]ccc5c4)ccc32)cc1 (stereo not shown) [LLS69Ac]	73%
COc1ccc(CCn2c(-c3ccc(N(CCOC(C)=O)CCOC(C)=O)cc3)nc3cc(C(CC(N)=O)NCC4CCCCC4)ccc32)cc1 (stereo not shown) [LLS56Ac]	92%

We now examine a further compound.
*Q* For the compound shown here, NC(=O)CC(NCc1ccc(Cl)c(Cl)c1)c1ccc2c(c1)nc(-c1ccc(N(CCO)CCO)cc1)n2CCCN1CCCCC1 (stereo not shown) [LLS46] , give the reported viability at 10 µM.
*A* 92%
